# Test system: Sphaerotheca fuliginea
# measurement description: In vivo preventive test on Sphaerotheca fuliginea (powdery mildew on cucurbits)
# assay context: Podosphaera fuliginea, 192 h; 500 ppm of active ingredient; preventive spray on gherkin; evaluated 8 days after inoculation; read-out: efficacy
readout kind: pest or weed control at 500 ppm

Can you look up pest or weed control at 500 ppm on Sphaerotheca fuliginea for Cc1ccc(C(F)(F)CNC(=O)c2c(Oc3cccc(C4CC4)c3F)nnc3c2CCC3)c(C)c1 [I-134] ? 90 to 100%

Can you look up pest or weed control at 500 ppm on Sphaerotheca fuliginea for Cc1ccc(C(F)(F)CNC(=O)c2c(Oc3cccc(C(F)(F)F)c3)cnc3ccccc23)c(C)c1 [I-039] ? 90 to 100%

Can you look up pest or weed control at 500 ppm on Sphaerotheca fuliginea for Cc1ccc([C@@H](F)CNC(=O)c2c(Oc3cccc(C(F)(F)F)c3)nnc3ccccc23)cc1C (racemic) [I-084] ? 80 to 89%

Continuing:
Can you look up pest or weed control at 500 ppm on Sphaerotheca fuliginea for O=C(NCC(F)(F)c1ccc(Br)cc1Cl)c1c(Oc2cncc(C(F)(F)F)c2)nnc2ccccc12 [I-027] ? 90 to 100%
